- TESTED SYSTEM: T1, human A-beta(1-40) peptide, monomeric (BAM) (human, biotin at the C-terminus in capture ELISA, SPR and TR-FRET; not biotinylated where coated directly (Example 7))
- T1 construct: synthetic peptide (Anaspec), TFA/HFIP treated to give monomer; also called monomeric A-beta
- MEASUREMENT PROTOCOL: ABII002 TR-FRET competition assay
VALUE TYPE: pIC50
Scale note: pIC50 = -log10(concentration in M).

Query pIC50 for ABII111B5_M107R = ABII002 (VHH, myc-tagged in ELISA) VHH: EVQLVESGGGLVLAGGSLRLSCVHSGPTFRTDTMGWFRQAPGKEREFVAAVTWNSGRINYADSVKGRFTVSRDNTRNAAYLQMSGLKDEDTAVYYCTAHRFVVGGNRVEDWRYWGQGTQVTVSS
8.54
